read-out: Cytochrome P450 (CYP1A1), CYP1A1 (gene 1543); assay: LTEA_HepaRG_CYP1A1: Life Technologies and Expression Analysis (LTEA) Assay for Cytochrome P450 (CYP1A1) using HepaRG (AID 2283454); conditions: mRNA level, 48 h; actives raise or lower the signal
The source made the active and inactive calls. How the source made its calls: active means hit-call score of the fitted dose curve at least 0.9, where 1 is the maximum; inactive means score below 0.9.
Possible outcomes: T (active), F (inactive)

| cpd smiles | label |
| --- | --- |
| C=CCOC(=O)c1ccccc1C(=O)OCC=C | T |
| Nc1ccc2c(c1)C(=O)c1ccccc1C2=O | T |
| CCCCCCCCCCCC(=O)OC | T |
| CCCCc1ccc2c(n1)[C@@H](c1ccc(OC)cc1C[C@H](C)C(=O)O)[C@H](C(=O)O)[C@H]2c1ccc2c(c1)OCO2 | T |
| CCCCCCC(=O)OCC | T |
| Nc1ccc(S(=O)(=O)c2ccc(N)cc2)cc1 | F |
| CNC(=O)[C@H]1O[C@@H](n2cnc3c(NCc4cc(Cl)ccc4OCc4cc(C)no4)ncnc32)[C@H](O)[C@@H]1N | F |
| CCCCCC(=O)O | T |
| Cc1cccc([N+](=O)[O-])c1C | F |
| Cc1cc(=O)[nH]c(=S)[nH]1 | T |
| CCCCN(CCCC)CCCC | F |
| CN1CCN(Cc2cc(-c3ccc4[nH]c(=O)oc4c3)co2)[C@@H](c2ccc(F)cc2)C1 | T |
| OC[C@@H](O)[C@@H](O)[C@H](O)[C@H](O)CO | F |
| c1cc(-c2ccncc2)ccn1 | T |
| NCC1(Cc2noc(=O)[nH]2)CCCCC1 | T |
| NC(=O)Cn1c(=O)cc(CCN2CCN(c3nccc4sccc34)CC2)c2ccc(F)cc21 | T |
| CCNc1cccc(C)c1 | T |
| Oc1ccc2ccccc2c1N=Nc1ccccc1 | T |
| O=C(OCCCCCOC(=O)c1ccccc1)c1ccccc1 | T |
